Below, each entry is listed with its recorded Kd.
tested_system: T1, GFP-9S library array, motif 4 ND N98L (synthetic construct, N98L)
T1 chain: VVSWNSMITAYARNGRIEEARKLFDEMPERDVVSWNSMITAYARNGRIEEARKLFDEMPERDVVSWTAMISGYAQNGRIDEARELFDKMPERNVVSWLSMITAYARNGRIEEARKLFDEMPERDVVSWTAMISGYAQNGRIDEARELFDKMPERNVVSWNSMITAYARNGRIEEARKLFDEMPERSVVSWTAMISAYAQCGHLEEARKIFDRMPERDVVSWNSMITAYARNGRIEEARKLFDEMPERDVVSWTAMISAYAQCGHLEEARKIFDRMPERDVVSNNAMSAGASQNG
assay_explanation: high-throughput RNA pulldown from lysate on Ni-NTA beads; HRP: 50 mM Tris pH 8, 150 mM NaCl, 1 mM beta-mercaptoethanol, 50 ug/ml BSA, 3 ug/ml yeast RNA, 0.5% heparin; ITC and FP: Tris pH 8, 200 mM KCl, 5% glycerol; MST: 50 mM Tris pH 8, 200 mM NaCl, 1 mM DTT, BSA, heparin, 0.05% Tween 20
condition_info: tags: N-terminal His-eGFP; label: 5' IRDye 800CW
Please reply with the bare figure in nM and do not write the unit itself.

Name the recorded Kd of the item AUUAUACGUGA (ssRNA) [IR-rpoA-U] in your answer.
66.3

Now let's try a different one.
Name the recorded Kd of the item AUUAAACGUGA (ssRNA) [IR-rpoA-A] in your answer.
452
